method summary: Luciferase activity of purified RLuc mutants (light output integrated over 10 s, luminometer)
Format: biochemical
study conditions: native coelenterazine; relative to native enzyme
Decision: Activity (relative to RLuc) native compared against 1; not below it gives class 1, below it gives class 0.

# count of solved cases: 6
# molecule, answer label
rows = [
    ("C124A/K136R: RLuc mutant C124A/K136R (protein) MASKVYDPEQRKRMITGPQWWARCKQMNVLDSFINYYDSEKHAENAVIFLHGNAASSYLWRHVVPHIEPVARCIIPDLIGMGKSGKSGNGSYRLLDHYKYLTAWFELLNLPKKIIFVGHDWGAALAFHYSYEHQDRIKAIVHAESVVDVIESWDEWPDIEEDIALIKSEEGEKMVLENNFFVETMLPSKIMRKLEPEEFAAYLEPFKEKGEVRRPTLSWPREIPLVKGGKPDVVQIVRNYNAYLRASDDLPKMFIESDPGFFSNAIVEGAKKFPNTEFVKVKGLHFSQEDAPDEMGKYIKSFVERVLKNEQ", "class 1"),
    ("A55T/C124A: RLuc mutant A55T/C124A (protein) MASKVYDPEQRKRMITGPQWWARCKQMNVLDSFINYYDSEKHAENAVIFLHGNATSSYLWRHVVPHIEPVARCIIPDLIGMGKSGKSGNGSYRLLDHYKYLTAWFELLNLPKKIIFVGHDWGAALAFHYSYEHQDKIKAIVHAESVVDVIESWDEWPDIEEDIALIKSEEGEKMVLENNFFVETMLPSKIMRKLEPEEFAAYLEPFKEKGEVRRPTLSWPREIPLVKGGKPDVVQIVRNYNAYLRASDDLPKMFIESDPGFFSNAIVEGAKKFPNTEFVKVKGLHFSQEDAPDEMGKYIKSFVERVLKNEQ", "class 1"),
    ("C124A/M253L: RLuc mutant C124A/M253L (protein) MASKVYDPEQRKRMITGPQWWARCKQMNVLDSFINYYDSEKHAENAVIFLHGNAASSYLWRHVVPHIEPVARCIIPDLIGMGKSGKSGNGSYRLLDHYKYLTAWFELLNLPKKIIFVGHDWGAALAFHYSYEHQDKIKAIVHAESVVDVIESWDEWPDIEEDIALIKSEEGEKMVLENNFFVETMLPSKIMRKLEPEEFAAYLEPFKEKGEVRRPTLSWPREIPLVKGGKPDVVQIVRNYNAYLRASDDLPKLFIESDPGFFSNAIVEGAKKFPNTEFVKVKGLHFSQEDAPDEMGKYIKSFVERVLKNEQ", "class 1"),
    ("C124A/M191L: RLuc mutant C124A/M191L (protein) MASKVYDPEQRKRMITGPQWWARCKQMNVLDSFINYYDSEKHAENAVIFLHGNAASSYLWRHVVPHIEPVARCIIPDLIGMGKSGKSGNGSYRLLDHYKYLTAWFELLNLPKKIIFVGHDWGAALAFHYSYEHQDKIKAIVHAESVVDVIESWDEWPDIEEDIALIKSEEGEKMVLENNFFVETMLPSKILRKLEPEEFAAYLEPFKEKGEVRRPTLSWPREIPLVKGGKPDVVQIVRNYNAYLRASDDLPKMFIESDPGFFSNAIVEGAKKFPNTEFVKVKGLHFSQEDAPDEMGKYIKSFVERVLKNEQ", "class 1"),
    ("A54G/A55G/C124A: RLuc mutant A54G/A55G/C124A (protein) MASKVYDPEQRKRMITGPQWWARCKQMNVLDSFINYYDSEKHAENAVIFLHGNGGSSYLWRHVVPHIEPVARCIIPDLIGMGKSGKSGNGSYRLLDHYKYLTAWFELLNLPKKIIFVGHDWGAALAFHYSYEHQDKIKAIVHAESVVDVIESWDEWPDIEEDIALIKSEEGEKMVLENNFFVETMLPSKIMRKLEPEEFAAYLEPFKEKGEVRRPTLSWPREIPLVKGGKPDVVQIVRNYNAYLRASDDLPKMFIESDPGFFSNAIVEGAKKFPNTEFVKVKGLHFSQEDAPDEMGKYIKSFVERVLKNEQ", "class 0"),
    ("C124A/L203R: RLuc mutant C124A/L203R (protein) MASKVYDPEQRKRMITGPQWWARCKQMNVLDSFINYYDSEKHAENAVIFLHGNAASSYLWRHVVPHIEPVARCIIPDLIGMGKSGKSGNGSYRLLDHYKYLTAWFELLNLPKKIIFVGHDWGAALAFHYSYEHQDKIKAIVHAESVVDVIESWDEWPDIEEDIALIKSEEGEKMVLENNFFVETMLPSKIMRKLEPEEFAAYREPFKEKGEVRRPTLSWPREIPLVKGGKPDVVQIVRNYNAYLRASDDLPKMFIESDPGFFSNAIVEGAKKFPNTEFVKVKGLHFSQEDAPDEMGKYIKSFVERVLKNEQ", "class 0"),
]

Let us examine a further case.
Request: Record C124A/S130A: RLuc mutant C124A/S130A (protein) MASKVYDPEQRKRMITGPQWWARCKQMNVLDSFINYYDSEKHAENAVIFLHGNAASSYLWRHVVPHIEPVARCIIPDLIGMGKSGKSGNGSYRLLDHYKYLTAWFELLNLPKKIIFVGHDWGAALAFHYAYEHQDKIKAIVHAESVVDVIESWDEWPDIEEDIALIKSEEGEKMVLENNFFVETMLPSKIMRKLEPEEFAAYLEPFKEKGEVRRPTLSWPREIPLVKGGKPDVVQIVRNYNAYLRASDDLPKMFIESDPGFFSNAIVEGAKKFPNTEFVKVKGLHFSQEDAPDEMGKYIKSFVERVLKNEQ ; criterion: Activity (relative to RLuc) native no lower than 1. Met?
Response: class 1
